tested on: P388 leukemia ip, CD2F1 mice, survival T/C; assay: NCI In Vivo Anticancer Drug Screen. Data for tumor model P388 Leukemia (intraperitoneal) in CD2F1 (CDF1) mice; details: endpoint: median survival time; dose: 50.0 mg/kg/injection; schedule: Q01DX005 (ip); vehicle: saline with Tween-80; higher = longer survival
Inconclusive results and toxic doses are left out.
Reported T/C values for the following molecules.

CCN(CC)Cc1c(OC)ccc2[nH]c3c4ccc(Cl)cc4ncc3c12 :: 101 % of control
S=C1N(c2ccc(Br)cc2)C2=Nc3ccccc3SC(=C2N=Nc2ccccc2)N1c1ccc(Cl)cc1 :: 94 % of control
O=c1/c(=C/C=C/c2ccccc2)sc2nc3ccccc3n12 :: 107 % of control
NC(CCS)C(=O)O (stereo unspecified) :: 90 % of control
CN(CCc1ccccn1)c1ccc2c(c1)C(=O)c1ccccc1-2 :: 100 % of control
CCOc1ccc(NC2OC(CO)C(O)C(O)C2NC(C)=O)cc1 (stereo unspecified) :: 105 % of control
CC1(C)OC2OCC(N=[N+]=[N-])C(O)C2O1 (stereo unspecified) :: 113 % of control
CC1(C)NC(=O)[C@]2(C[C@@H](OC(=O)c3ccccc3)C=C2C=O)O1 :: 96 % of control

Prompt line: Any idea what its T/C is? The molecule is O=S(=O)(Nc1ccc2ccc(NS(=O)(=O)N3CCCCC3)cc2c1)N1CCCCC1
Response line: 104 % of control

Prompt line: Note, next up: Nc1ncc2c(n1)CCCC2
Response line: 98 % of control

Prompt line: Please give the result for Cc1ccccc1-n1c(=S)n(-c2ccc(Cl)cc2)c2nc3ccccc3nc1/c2=N/Nc1cc(Cl)ccc1Cl too.
Response line: 95 % of control
